target: Acetylcholinesterase (Homo sapiens, UniProt P22303); experiment: In vitro inhibitory concentration against purified Acetylcholinesterase of human erythrocytes; value ranges from 0.025-0.027
Sequence (P22303 whole entry): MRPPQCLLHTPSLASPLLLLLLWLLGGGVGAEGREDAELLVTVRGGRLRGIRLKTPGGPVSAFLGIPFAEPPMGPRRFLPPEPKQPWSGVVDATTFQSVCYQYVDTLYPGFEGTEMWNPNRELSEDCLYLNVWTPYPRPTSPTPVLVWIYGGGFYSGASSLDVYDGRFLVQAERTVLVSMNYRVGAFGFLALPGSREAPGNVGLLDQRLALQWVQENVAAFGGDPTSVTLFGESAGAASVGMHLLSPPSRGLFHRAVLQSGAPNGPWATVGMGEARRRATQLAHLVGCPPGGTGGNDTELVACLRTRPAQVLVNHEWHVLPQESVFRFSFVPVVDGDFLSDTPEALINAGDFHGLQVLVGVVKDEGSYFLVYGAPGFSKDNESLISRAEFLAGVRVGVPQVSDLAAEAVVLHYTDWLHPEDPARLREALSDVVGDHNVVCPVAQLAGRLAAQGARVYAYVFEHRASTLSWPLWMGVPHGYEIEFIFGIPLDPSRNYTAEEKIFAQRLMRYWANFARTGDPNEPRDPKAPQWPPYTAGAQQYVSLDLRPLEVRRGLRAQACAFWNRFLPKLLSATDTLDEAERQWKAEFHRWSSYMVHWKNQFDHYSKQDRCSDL
READOUT_KIND: pIC50
Note on pIC50: it is the negative log10 of concentration, concentration in mol/L.

Entry CCN(C)C(=O)Oc1cccc2c1CCC2N (stereo unspecified) has what pIC50? 7.59

====

target: Amine oxidase [flavin-containing] B (Rattus norvegicus, UniProt P19643); test: In vitro inhibitory concentration against Monoamine oxidase B of rat brain homogenates; value ranges from 90-260
Sequence (P19643 whole entry): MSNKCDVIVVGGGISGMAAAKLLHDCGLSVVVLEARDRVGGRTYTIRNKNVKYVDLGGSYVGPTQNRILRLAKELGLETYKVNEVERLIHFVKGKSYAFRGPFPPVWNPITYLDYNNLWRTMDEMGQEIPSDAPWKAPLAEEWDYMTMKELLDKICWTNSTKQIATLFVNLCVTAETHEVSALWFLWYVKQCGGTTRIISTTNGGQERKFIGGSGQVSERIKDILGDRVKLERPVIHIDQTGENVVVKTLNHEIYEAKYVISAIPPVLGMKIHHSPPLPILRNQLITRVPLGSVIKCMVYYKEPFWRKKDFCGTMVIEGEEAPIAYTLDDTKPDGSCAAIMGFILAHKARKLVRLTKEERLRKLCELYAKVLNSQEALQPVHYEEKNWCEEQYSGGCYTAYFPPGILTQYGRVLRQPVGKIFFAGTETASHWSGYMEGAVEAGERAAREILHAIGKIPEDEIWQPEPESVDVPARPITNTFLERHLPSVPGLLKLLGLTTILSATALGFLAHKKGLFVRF
READOUT_KIND: IC50 (µM)
Answer with a number only, understood to be in µM.

Checklist item: IC50 tested on Amine oxidase [flavin-containing] B (Rattus norvegicus, UniProt P19643), entry C#CCNC1CCc2c(OC(=O)N(C)CC)cccc21 (stereo unspecified) , value? 150

====

biological target: Acetylcholinesterase (Homo sapiens); test: In vitro inhibitory concentration against purified Acetylcholinesterase of human erythrocytes; value ranges from 9.8-157
READOUT_KIND: IC50 (µM)
Answer with a number only, understood to be in µM.

Checklist item: IC50 tested on Acetylcholinesterase (Homo sapiens), entry C#CCN(C)C(C)Cc1cccc(OC(=O)N(C)CCC)c1 (stereo unspecified) , value? 33.1

====

target: Acetylcholinesterase (Homo sapiens); assay: In vitro inhibitory concentration against purified Acetylcholinesterase of human erythrocytes; value ranges from 33.2-96.7
READOUT_KIND: pIC50
Note on pIC50: it is the negative log10 of concentration, concentration in mol/L.

Entry C#CCNC1CCc2cccc(OC(=O)N(C)CCC)c21 (stereo unspecified) has what pIC50? 4.34

====

target: Butyrylcholinesterase (Equus caballus); experiment: In vitro inhibitory concentration against Butyrylcholinesterase of horse serum; value ranges from 1.89-4.67
READOUT_KIND: IC50 (nM)
Answer with a number only, understood to be in nM.

Entry C#CCNC(C)Cc1cccc(OC(=O)N(C)CCCC)c1 (stereo unspecified) has what IC50? 2750

====

target: Acetylcholinesterase (Homo sapiens, UniProt P22303)
READOUT_KIND: IC50 (µM)
Answer with a number only, understood to be in µM.

Checklist item: IC50 tested on Acetylcholinesterase (Homo sapiens, UniProt P22303), entry C#CCNCCc1cccc(OC(=O)N(C)CCC)c1 , value? 15.4

====

biological target: Acetylcholinesterase (Homo sapiens, UniProt P22303)
READOUT_KIND: pIC50
Note on pIC50: it is the negative log10 of concentration, concentration in mol/L.

Entry CCN(C)C(=O)Oc1cccc2c1C(N)CC2 (stereo unspecified) has what pIC50? 4.98

====

molecular target: UniProtKB P21396; assay: In vitro inhibitory concentration against Monoamine oxidase A of rat brain homogenates; value ranges from 2-8; assay type: tissue-based
Sequence (P21396 whole entry): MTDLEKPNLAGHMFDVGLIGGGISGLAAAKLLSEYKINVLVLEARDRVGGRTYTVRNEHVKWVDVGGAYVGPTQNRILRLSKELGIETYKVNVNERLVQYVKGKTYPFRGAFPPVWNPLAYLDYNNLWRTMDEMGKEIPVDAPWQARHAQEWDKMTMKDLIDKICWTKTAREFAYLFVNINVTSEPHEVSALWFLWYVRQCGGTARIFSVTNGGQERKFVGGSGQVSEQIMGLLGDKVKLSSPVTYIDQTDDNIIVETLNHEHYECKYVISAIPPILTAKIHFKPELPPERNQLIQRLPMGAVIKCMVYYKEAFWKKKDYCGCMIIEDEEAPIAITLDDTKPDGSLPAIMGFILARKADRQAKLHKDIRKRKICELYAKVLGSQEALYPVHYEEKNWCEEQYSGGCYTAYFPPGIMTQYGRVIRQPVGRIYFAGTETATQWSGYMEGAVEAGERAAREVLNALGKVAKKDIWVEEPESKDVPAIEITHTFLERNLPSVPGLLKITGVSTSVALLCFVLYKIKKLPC
READOUT_KIND: pIC50
Note on pIC50: it is the negative log10 of concentration, concentration in mol/L.

Entry C#CCN(C)[C@@H]1CCc2ccc(OC(=O)N(C)CC)cc21 has what pIC50? 5.40

====

biological target: Butyrylcholinesterase (Equus caballus, UniProt Q9N1N9); experiment: In vitro inhibitory concentration against Butyrylcholinesterase of horse serum; value ranges from 0.70-0.92
Sequence (Q9N1N9 whole entry): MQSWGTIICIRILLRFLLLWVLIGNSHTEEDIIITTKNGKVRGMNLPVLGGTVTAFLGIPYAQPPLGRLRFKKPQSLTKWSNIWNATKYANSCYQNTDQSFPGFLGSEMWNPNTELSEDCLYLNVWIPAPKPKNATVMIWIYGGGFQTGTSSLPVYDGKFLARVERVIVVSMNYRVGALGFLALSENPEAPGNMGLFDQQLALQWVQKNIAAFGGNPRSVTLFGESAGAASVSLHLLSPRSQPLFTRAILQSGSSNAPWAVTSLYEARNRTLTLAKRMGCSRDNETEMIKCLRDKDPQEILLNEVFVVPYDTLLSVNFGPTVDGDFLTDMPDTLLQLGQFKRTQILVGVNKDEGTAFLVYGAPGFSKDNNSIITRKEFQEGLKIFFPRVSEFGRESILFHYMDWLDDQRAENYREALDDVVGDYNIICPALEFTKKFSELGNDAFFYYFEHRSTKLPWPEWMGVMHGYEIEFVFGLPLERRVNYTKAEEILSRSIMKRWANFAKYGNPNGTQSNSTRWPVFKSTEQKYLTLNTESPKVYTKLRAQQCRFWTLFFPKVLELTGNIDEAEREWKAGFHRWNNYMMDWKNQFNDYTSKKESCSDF
READOUT_KIND: pIC50
Note on pIC50: it is the negative log10 of concentration, concentration in mol/L.

Entry C#CCN(C)C1CCc2c(OC(=O)N(C)CC)cccc21 (stereo unspecified) has what pIC50? 6.10
